The reported numbers originate from PubChem BioAssay AID1345082.

- protocol_details: Cytotoxic Profiling in NIH 3T3 Cell Line of Diverse Libraries Using Quantitative High-Throughput Screening; also: nearly all actives have a fitted effect of over 55% in size; also: potency is read from the fitted curve at half-maximal effect
- condition_context: NIH 3T3 viability, CellTiter-Glo ATP luminescence, 48-72 h; series mostly up to 96.7 µM
- Excerpt: Cell-based phenotypic screening is a commonly used approach to discover biological pathways, novel drug targets, chemical probes and high-quality hit-to-lead molecules. Many hits identified from high-throughput screening campaign are ruled out through a series of follow-up potency, selectivity/specificity, and cytotoxicity assays. […]
Hit rate of the full screen: of about 94,000 compounds, about 4,000 (4.3%) were called active. Roughly 29% stayed inconclusive and do not appear here. This excerpt belongs to a sample that is enriched for actives.
property_name: Potency

compound: CCOc1cc(C)c(CN2C[C@@H](CN(C)C)C[C@H](CO)C2)cc1C(C)C
Potency: 31.6 µM (active)

compound: O=C(Nc1ccccc1)N1CCC(C(=O)N2CCC(N3CCOCC3=O)CC2)CC1
Potency: inactive

compound: Cc1cccc(CN2CCc3ncc(C(=O)NCc4ccccc4)n3CC2)n1
Potency: 89.1 µM (active)

compound: COc1cc(C)c(CN2CCN3C(=O)CNC(=O)C3C2)cc1C(C)C (stereo not given)
Potency: inactive

Consider now this further compound.
// Cc1cc(=O)n(CC(=O)N2C[C@H](CO)C[C@H](CN(C)C)C2)nc1C : Potency value = inactive

* * *

- protocol_details: Cytotoxic Profiling in NIH 3T3 Cell Line of Diverse Libraries Using Quantitative High-Throughput Screening; also: nearly all actives have a fitted effect of over 55% in size
- condition_context: NIH 3T3 viability, CellTiter-Glo ATP luminescence, 48-72 h; series mostly up to 96.7 µM
Screen size: about 94,000 compounds; about 4,000 (4.3%) were called active. Another 29% or so got no clear call; they are omitted. The call rests on the fitted dose curve; in most records, active means well fitted inhibition curve with a large enough effect; inconclusive means small, poorly fitted or top-dose-only effect; inactive means no such curve, though single readings can be large or run the other way. What follows is part of a selection rich in actives, with near analogues and random picks from the rest.
The categories you may choose from are Yes for active, No for inactive

Below are worked cases with known answers.
molecule: O=C(NCc1cccc(F)c1)C1CN(c2ccccc2)C(=O)N1 (stereo not given)
label_value: No

molecule: Cc1noc(C)c1S(=O)(=O)N1CCC2(CC1)CN(c1ccccc1)C2=O
label_value: No

molecule: CN(C)CCN(C)C(=O)c1ccc2c(c1)NC(C)(COc1ccc3[nH]ccc3c1)CO2 (stereo not given)
label_value: Yes

molecule: CCCc1nnc(C[C@@H]2C[C@@H](C(C)C)[C@H](CN3CCC[C@H]3CO)C=C2C)o1
label_value: Yes

molecule: CCOc1ccc(-c2noc(-c3ncn4c3COC(c3ccc(OC)cc3)C4)n2)cc1 (stereo not given)
label_value: No

Request: Any idea what this test logged for CC(=O)Nc1ccc(C2(C(=O)NCCCN3CCOCC3)CCCCC2)cc1 ?
Result: No

Request: Any idea what this test logged for CC1=C[C@@H](CN(C)CCc2ccccn2)[C@H](C(C)C)C[C@H]1Cc1nnc(-c2ccccc2F)o1 ?
Result: Yes

* * *

- protocol_details: Cytotoxic Profiling in NIH 3T3 Cell Line of Diverse Libraries Using Quantitative High-Throughput Screening; also: nearly all actives have a fitted effect of over 55% in size
- condition_context: NIH 3T3 viability, CellTiter-Glo ATP luminescence, 48-72 h; series mostly up to 96.7 µM
Among all 94,000 compounds or so, about 4,000 (4.3%) were called active. Inconclusive results (about 29%) are left out. Calls follow the shape of the dose curve; as a rule, active = well fitted inhibition curve with a large enough effect; inconclusive = small, poorly fitted or top-dose-only effect; inactive = no such curve, though single readings can be large or run the other way. The sample as a whole holds a higher share of actives than the screen did.
The categories you may choose from are active, inactive

Request: Any idea what this test logged for O=C(NC1CCc2nn(CC3CC3)c(=O)n2CC1)c1ccc(Cn2ccnc2)o1 (stereo not given) ?
Result: inactive

Request: Any idea what this test logged for CCNC(=O)[C@@H]1C[C@@H](NC(=O)c2csc(C)c2CC)CN1C1CCCC1 ?
Result: inactive

* * *

- protocol_details: Cytotoxic Profiling in NIH 3T3 Cell Line of Diverse Libraries Using Quantitative High-Throughput Screening; also: nearly all actives have a fitted effect of over 55% in size
- condition_context: NIH 3T3 viability, CellTiter-Glo ATP luminescence, 48-72 h; series mostly up to 96.7 µM
Hit rate of the full screen: of about 94,000 compounds, about 4,000 (4.3%) were called active. Roughly 29% stayed inconclusive and do not appear here. The call rests on the fitted dose curve; in most records, active means well fitted inhibition curve with a large enough effect; inconclusive means small, poorly fitted or top-dose-only effect; inactive means no such curve, though single readings can be large or run the other way. The full list was thinned out, with actives kept by preference.
The categories you may choose from are y = active, n = inactive

Below are worked cases with known answers.
molecule: Cc1ncccc1C(=O)N1CC2CC(C1)[C@H]1CCCC(=O)N1C2 (stereo partly specified)
label_value: n
--
molecule: CNC(=O)N1CCc2nc(N3CCOCC3)[nH]c(=O)c2CC1
label_value: n
--
molecule: CC(=O)N1CCC[C@@H]1C(=O)N1CCC(N2CCOC2=O)CC1
label_value: n
--
molecule: COc1ccc(CNC(=O)c2noc(-c3ccc(F)cc3)n2)cc1
label_value: n
--
molecule: Cc1ccc2c(c1)C(C[C@H]1CN(C(=O)NC(C)C)CC[C@H]1CC(=O)O)=NCC2
label_value: n
--
molecule: O=C(CN1CCCC1=O)NCC1Cn2cccc2C(=O)N1Cc1ccccc1 (stereo unspecified)
label_value: n
--
molecule: Nc1nc(CCCNC(=O)C2NCCc3[nH]cnc32)cs1 (stereo unspecified)
label_value: n
--
molecule: O=C1CCCCC(CNC(=O)c2cc(F)ccc2F)N1 (stereo unspecified)
label_value: n
--
molecule: C1CCC(COCCc2noc(C3CNC3)n2)C1
label_value: y
--
molecule: Cc1noc(C)c1CC(=O)N1CCC(c2n[nH]c(=O)n2Cc2ccc(F)cc2)CC1
label_value: n

// next entry
Request: Any idea what this test logged for COc1ccccc1C(=O)N1CCC2(CC1)C(=O)Nc1ccccc12 ?
Result: n

* * *

- protocol_details: Cytotoxic Profiling in NIH 3T3 Cell Line of Diverse Libraries Using Quantitative High-Throughput Screening; also: nearly all actives have a fitted effect of over 55% in size
- condition_context: NIH 3T3 viability, CellTiter-Glo ATP luminescence, 48-72 h; series mostly up to 96.7 µM
Among all 94,000 compounds or so, about 4,000 (4.3%) were called active. Another 29% or so got no clear call; they are omitted. Calls come from the whole dose curve; as a rule, active = well fitted inhibition curve with a large enough effect; inconclusive = small, poorly fitted or top-dose-only effect; inactive = no such curve, though single readings can be large or run the other way. This is one part of a sample in which actives are shown more often than they occur.
The categories you may choose from are active, inactive

Below are worked cases with known answers.
compound: O=C(O)CCn1ncc2cc(OC3CCN(C(=O)C4CCCC4)CC3)ccc21
label_value: active

compound: CC(=O)N1C[C@@H]2CCCN3CCC[C@@H]([C@H]23)[C@H]1CCCC(=O)NCc1cc(F)cc(F)c1
label_value: inactive

Request: Any idea what this test logged for Cc1ccc(Cl)cc1NC(=O)CN1C(=O)NC(c2ccc(Cl)cc2)C2=C1COC2=O (stereo unspecified) ?
Result: active

Request: Any idea what this test logged for O=C(c1ccsc1)N1CCCCCC1c1nnc(-c2ccccc2)o1 (stereo unspecified) ?
Result: inactive

* * *

- protocol_details: Cytotoxic Profiling in NIH 3T3 Cell Line of Diverse Libraries Using Quantitative High-Throughput Screening; also: nearly all actives have a fitted effect of over 55% in size; also: potency is read from the fitted curve at half-maximal effect
- condition_context: NIH 3T3 viability, CellTiter-Glo ATP luminescence, 48-72 h; series mostly up to 96.7 µM
Among all 94,000 compounds or so, about 4,000 (4.3%) were called active. Another 29% or so got no clear call; they are omitted. Only a selection was taken, and actives are over-represented in it overall.
property_name: Potency

Below: 5 molecules and their reported Potency.
molecule: CCC(C)NC(=O)Cc1csc2nc(C)c(-c3cc(C)n(-c4ccc(C(C)C)cc4)n3)c(=O)n12 (centres undefined)
Potency: inactive
//
molecule: CC1=C[C@@H](CN2CCOCC2)[C@H](C(C)C)C[C@H]1Cc1nnc(-c2ccc([N+](=O)[O-])cc2)o1
Potency: 35.5 µM (active)
//
molecule: COc1ccc(CC(=O)N2CCC[C@@H]2C(=O)N2CCC(N3CCOC3=O)CC2)cc1
Potency: inactive
//
molecule: O=C(N[C@@H]1CN(c2ncccn2)C[C@H]1CO)c1ccco1
Potency: inactive
//
molecule: Cc1ccc(CNC(=O)C2CCN(C(=O)c3ncn4c3COC(c3ccc(F)cc3)C4)CC2)cc1 (centres undefined)
Potency: inactive

// CC1=C[C@@H](CNC2CC2)[C@H](C(C)C)C[C@H]1Cc1nnc(-c2ccc(C)cc2)o1 : Potency value = 39.8 µM (active)

// Cc1nn(-c2ccccc2)c2c1C(C(C)C)N(C1CCN(C(=O)c3ccc(Cl)nc3)CC1)C2=O (centres undefined) : Potency value = inactive

// COCC(=O)NC1CCC12CCN(C(=O)Nc1ccccc1)CC2 (centres undefined) : Potency value = inactive

// CC1=C[C@@H](CNC(=O)NC(C)C)[C@H](C(C)C)C[C@H]1Cc1nnc(-c2ccncc2)o1 : Potency value = 56.2 µM (active)

// Cc1nn(-c2ccc(C(C)(C)C)cc2)c(C)c1[C@@H]1C=C[C@@H](NC(=O)c2ccco2)C1 : Potency value = 35.5 µM (active)

// COc1cccc(NC(=O)Cn2c(=O)n(-c3ccc(F)cc3)c(=O)c3c2cc(C)n3C)c1 : Potency value = inactive

* * *

- protocol_details: Cytotoxic Profiling in NIH 3T3 Cell Line of Diverse Libraries Using Quantitative High-Throughput Screening; also: nearly all actives have a fitted effect of over 55% in size
- condition_context: NIH 3T3 viability, CellTiter-Glo ATP luminescence, 48-72 h; series mostly up to 96.7 µM
The whole screen tested about 94,000 compounds, of which about 4,000 (4.3%) were called active. Not shown: some 29% with an inconclusive outcome. Calls come from the whole dose curve; as a rule, active = well fitted inhibition curve with a large enough effect; inconclusive = small, poorly fitted or top-dose-only effect; inactive = no such curve, though single readings can be large or run the other way. Many of the other results were omitted from the sample, so actives are more common in it than they were.
The categories you may choose from are active, inactive

Below are worked cases with known answers.
compound: COCC(=O)NCCC1CCN(C(=O)Nc2cc(F)cc(F)c2)CC1
label_value: inactive

compound: CN(C)S(=O)(=O)N1CCCOCCNC(=O)[C@@H]2CCC[C@@H]21
label_value: inactive

compound: Cc1ccc(-c2cccc(CN3CCCC(NC(=O)c4ccc(Cl)cc4)C3)c2)cc1Cl (stereo not given)
label_value: inactive

compound: CCCc1nc(NCC(c2ccccn2)N2CCOCC2)c2cnn(C)c2n1 (stereo not given)
label_value: inactive

compound: CC(C)Cc1cc(CNc2nc(C(C)(C)C)nc3c2cnn3C)no1
label_value: active

compound: COc1cncc(-c2cccc(COc3ccc4c(cnn4CC[S+](C)(=O)[O-])c3)c2)c1
label_value: active

compound: COCC(=O)N[C@@H](Cn1ccc(=O)[nH]c1=O)C(=O)O
label_value: inactive

compound: CC(C)NC(=O)NC[C@H]1O[C@@H]2C[C@@H](CC(=O)NCc3nccn3C)O[C@@H]2[C@@H]1O
label_value: inactive

compound: COc1ccccc1CNC(=O)c1nn(CC2CC2)c2c1CNCC2
label_value: inactive

Request: Any idea what this test logged for COCCCNC(=O)c1ccc2oc(-c3ccc(OC)nc3)nc2c1 ?
Result: inactive
